# TARGET_OR_TEST_SYSTEM: DNA polymerase α isolated from the bovine thymus (Bos taurus, UniProt A0AAA9TD94)
# Construct: isolated from the bovine thymus and purified with an antibody column; from tissue; host or cells: bovine thymus
# Sequence (A0AAA9TD94 1-1441): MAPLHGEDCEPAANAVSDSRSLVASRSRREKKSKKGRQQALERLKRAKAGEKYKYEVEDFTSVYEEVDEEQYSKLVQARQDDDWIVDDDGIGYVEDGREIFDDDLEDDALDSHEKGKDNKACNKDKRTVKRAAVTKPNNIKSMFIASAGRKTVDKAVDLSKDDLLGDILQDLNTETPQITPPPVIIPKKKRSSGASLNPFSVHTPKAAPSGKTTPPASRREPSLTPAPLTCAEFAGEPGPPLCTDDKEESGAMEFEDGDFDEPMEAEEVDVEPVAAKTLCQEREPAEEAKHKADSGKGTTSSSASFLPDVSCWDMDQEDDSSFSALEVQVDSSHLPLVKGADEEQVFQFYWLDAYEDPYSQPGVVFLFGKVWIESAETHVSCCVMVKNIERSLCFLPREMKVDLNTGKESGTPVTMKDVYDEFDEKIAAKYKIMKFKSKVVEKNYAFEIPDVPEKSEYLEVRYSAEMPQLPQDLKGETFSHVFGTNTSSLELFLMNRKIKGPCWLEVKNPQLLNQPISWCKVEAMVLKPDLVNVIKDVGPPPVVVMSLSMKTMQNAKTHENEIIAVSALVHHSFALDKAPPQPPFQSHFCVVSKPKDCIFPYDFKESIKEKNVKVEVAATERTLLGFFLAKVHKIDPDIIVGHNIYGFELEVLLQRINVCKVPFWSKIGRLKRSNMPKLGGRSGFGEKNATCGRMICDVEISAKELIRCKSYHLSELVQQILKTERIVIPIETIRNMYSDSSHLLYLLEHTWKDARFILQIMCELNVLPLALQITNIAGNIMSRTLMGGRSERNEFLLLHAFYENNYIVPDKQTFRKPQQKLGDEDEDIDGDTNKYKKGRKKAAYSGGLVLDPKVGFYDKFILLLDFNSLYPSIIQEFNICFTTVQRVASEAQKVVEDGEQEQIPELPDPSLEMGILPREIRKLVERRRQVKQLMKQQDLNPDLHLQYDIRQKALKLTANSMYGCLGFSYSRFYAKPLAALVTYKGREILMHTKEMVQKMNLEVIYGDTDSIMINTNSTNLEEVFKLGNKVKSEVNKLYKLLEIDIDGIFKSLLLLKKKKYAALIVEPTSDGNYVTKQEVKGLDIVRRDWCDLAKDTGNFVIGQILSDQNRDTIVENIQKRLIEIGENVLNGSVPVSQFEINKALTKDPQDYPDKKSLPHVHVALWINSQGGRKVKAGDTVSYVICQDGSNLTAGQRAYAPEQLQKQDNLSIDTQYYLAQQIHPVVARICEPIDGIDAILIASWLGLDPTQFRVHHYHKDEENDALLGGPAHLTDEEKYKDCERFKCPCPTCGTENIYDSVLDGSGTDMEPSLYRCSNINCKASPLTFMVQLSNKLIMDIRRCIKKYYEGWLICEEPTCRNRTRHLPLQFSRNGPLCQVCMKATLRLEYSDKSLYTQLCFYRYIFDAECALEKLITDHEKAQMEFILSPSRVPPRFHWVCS
# PROTOCOL_DESCRIPTION: Inhibitory effect against DNA polymerase α
# Format: biochemical
# EXPERIMENTAL_CONDITIONS: 0.05 U enzyme, 37° C., 60 minutes; mixture of S- and R-configurations; read-out: IC50, Inhibition Activity against DNA Polymerase α (converted)
Grouping by measured IC50 is done with the following cut points: class 1: < 500 nM; class 2: ≥ 500 nM and < 2000 nM; class 3: ≥ 2000 nM

molecule="CCCCCCCCCCCCCCCC(=O)OCC(O)CO[C@H]1O[C@H](CS(=O)(=O)O)[C@@H](O)[C@H](O)[C@H]1O (mixture of isomers) [SQAG 4]" target_or_test_system="DNA polymerase α isolated from the bovine thymus (Bos taurus, UniProt A0AAA9TD94)" class_label="class 3"
molecule="CCCCCCCCCCCCCCCCCCCCCC(=O)OCC(O)CO[C@H]1O[C@H](CS(=O)(=O)O)[C@@H](O)[C@H](O)[C@H]1O (mixture of isomers) [SQAG 12]" target_or_test_system="DNA polymerase α isolated from the bovine thymus (Bos taurus, UniProt A0AAA9TD94)" class_label="class 2"

Ask | Band for CCCCCCCCCCCCCCCCCC(=O)OCC(CO[C@H]1O[C@H](CS(=O)(=O)O)[C@@H](O)[C@H](O)[C@H]1O)OC(=O)CCCCCCCCCCCCCCCCC (mixture of isomers) [SQAG 5] ?
Reply | class 1

Ask | Band for CCCCCCCCCCCCCC(=O)OCC(O)CO[C@H]1O[C@H](CS(=O)(=O)O)[C@@H](O)[C@H](O)[C@H]1O (mixture of isomers) [SQAG 2] ?
Reply | class 3

Ask | Band for CCCCCCCCCCCCCCCCCC(=O)OCC(CO[C@@H]1O[C@H](CS(=O)(=O)O)[C@@H](O)[C@H](O)[C@H]1O)OC(=O)CCCCCCCCCCCCCCCCC (mixture of isomers) [SQAG 9] ?
Reply | class 1

Ask | Band for CCCCCCCCCCCCCC(=O)OCC(CO[C@H]1O[C@H](CS(=O)(=O)O)[C@@H](O)[C@H](O)[C@H]1O)OC(=O)CCCCCCCCCCCCC (mixture of isomers) [SQAG 1] ?
Reply | class 2

Ask | Band for CCCCCCCCCCCCCCCCCCCCCCCC(=O)OCC(O)CO[C@H]1O[C@H](CS(=O)(=O)O)[C@@H](O)[C@H](O)[C@H]1O (mixture of isomers) [SQAG 13] ?
Reply | class 2

Ask | Band for CCCCCCCCCCCCCCCC(=O)OCC(CO[C@@H]1O[C@H](CS(=O)(=O)O)[C@@H](O)[C@H](O)[C@H]1O)OC(=O)CCCCCCCCCCCCCCC (mixture of isomers) [SQAG 7] ?
Reply | class 1

Ask | Band for CCCCCCCCCCCCCCCC(=O)OCC(O)CO[C@@H]1O[C@H](CS(=O)(=O)O)[C@@H](O)[C@H](O)[C@H]1O (mixture of isomers) [SQAG 8] ?
Reply | class 3

Reference source for all entries: patent US6518410B2
